The molecules listed here are annotated with their pIC50.
# ASSAY_SYSTEM: NMDA NR1/NR2B receptor (Homo sapiens, UniProt Q05586+Q13224)
# Sequence (Q13224 27-1484, other chains not shown): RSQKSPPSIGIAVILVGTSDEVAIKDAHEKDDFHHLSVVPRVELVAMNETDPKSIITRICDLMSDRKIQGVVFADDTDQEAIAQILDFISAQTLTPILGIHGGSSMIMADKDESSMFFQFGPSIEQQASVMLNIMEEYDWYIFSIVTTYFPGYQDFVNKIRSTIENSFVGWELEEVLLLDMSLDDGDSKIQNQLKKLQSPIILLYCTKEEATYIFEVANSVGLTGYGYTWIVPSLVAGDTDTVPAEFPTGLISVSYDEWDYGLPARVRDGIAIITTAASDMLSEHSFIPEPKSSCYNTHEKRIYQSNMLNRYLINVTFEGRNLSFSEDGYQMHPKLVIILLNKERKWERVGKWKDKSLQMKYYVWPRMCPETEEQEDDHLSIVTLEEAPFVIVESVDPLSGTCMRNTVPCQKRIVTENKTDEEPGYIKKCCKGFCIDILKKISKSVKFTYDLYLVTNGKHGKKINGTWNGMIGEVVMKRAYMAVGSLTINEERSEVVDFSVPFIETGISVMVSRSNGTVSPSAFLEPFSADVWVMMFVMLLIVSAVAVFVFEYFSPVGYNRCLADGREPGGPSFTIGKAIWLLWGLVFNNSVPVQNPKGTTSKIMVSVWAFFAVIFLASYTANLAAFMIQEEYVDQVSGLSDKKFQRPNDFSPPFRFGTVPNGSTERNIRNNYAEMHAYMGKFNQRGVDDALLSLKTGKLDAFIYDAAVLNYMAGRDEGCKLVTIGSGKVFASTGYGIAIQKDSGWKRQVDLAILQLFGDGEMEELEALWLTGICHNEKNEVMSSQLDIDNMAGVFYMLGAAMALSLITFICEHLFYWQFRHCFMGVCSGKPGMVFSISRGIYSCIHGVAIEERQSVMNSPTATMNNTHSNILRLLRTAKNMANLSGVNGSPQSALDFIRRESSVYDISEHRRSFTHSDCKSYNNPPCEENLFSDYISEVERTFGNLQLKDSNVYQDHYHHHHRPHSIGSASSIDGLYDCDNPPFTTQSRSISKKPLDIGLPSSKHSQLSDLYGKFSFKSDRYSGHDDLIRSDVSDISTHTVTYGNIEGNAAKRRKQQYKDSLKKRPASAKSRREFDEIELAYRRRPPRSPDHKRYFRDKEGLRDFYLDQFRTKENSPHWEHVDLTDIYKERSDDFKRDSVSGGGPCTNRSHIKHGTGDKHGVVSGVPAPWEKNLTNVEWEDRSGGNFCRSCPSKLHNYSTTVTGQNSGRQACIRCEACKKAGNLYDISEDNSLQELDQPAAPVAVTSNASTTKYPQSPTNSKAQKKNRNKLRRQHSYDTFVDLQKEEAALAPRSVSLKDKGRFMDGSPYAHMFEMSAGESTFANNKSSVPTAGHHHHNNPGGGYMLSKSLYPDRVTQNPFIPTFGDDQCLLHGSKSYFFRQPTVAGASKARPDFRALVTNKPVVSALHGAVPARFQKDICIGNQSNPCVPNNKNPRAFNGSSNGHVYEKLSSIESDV
# TEST_NAME: In vitro NMDA NR1/NR2B cell assay (FLIPR, intracellular calcium induced by glycine/glutamate)
# ASSAY_CONTEXT: HEK293 cells expressing NMDA NR1/NR2B; 20 μM glycine, 1 μM glutamate; read-out: IC50 (in vitro NR2B affinity, FLIPR assay)
Scale explanation: pIC50 corresponds to minus log10 of a concentration expressed in moles per litre.

COMPOUND_STRING: CNC(=O)[C@@H]1CN(Cc2ccc(Oc3cc(F)ccc3Cl)nc2)CCO1
pIC50: 6.54

COMPOUND_STRING: CNC(=O)[C@@H]1CN(Cc2ccc(Oc3ccccc3F)nc2)CCO1
pIC50: 6.70

GET pIC50 | system: NMDA NR1/NR2B receptor (Homo sapiens, UniProt Q05586+Q13224) | item: CNC(=O)[C@@H]1CN(Cc2ccc(Oc3ccc(F)cc3F)cn2)CCO1
6.56

Recall the reported pIC50 of CNC(=O)[C@@H]1CN(Cc2ccc(Oc3ccccc3Cl)nc2)CCO1 on NMDA NR1/NR2B receptor (Homo sapiens, UniProt Q05586+Q13224) and write it down.
6.73

---

# ASSAY_SYSTEM: Nav1.6 (Homo sapiens, UniProt Q9UQD0)
# Sequence (Q9UQD0 whole entry): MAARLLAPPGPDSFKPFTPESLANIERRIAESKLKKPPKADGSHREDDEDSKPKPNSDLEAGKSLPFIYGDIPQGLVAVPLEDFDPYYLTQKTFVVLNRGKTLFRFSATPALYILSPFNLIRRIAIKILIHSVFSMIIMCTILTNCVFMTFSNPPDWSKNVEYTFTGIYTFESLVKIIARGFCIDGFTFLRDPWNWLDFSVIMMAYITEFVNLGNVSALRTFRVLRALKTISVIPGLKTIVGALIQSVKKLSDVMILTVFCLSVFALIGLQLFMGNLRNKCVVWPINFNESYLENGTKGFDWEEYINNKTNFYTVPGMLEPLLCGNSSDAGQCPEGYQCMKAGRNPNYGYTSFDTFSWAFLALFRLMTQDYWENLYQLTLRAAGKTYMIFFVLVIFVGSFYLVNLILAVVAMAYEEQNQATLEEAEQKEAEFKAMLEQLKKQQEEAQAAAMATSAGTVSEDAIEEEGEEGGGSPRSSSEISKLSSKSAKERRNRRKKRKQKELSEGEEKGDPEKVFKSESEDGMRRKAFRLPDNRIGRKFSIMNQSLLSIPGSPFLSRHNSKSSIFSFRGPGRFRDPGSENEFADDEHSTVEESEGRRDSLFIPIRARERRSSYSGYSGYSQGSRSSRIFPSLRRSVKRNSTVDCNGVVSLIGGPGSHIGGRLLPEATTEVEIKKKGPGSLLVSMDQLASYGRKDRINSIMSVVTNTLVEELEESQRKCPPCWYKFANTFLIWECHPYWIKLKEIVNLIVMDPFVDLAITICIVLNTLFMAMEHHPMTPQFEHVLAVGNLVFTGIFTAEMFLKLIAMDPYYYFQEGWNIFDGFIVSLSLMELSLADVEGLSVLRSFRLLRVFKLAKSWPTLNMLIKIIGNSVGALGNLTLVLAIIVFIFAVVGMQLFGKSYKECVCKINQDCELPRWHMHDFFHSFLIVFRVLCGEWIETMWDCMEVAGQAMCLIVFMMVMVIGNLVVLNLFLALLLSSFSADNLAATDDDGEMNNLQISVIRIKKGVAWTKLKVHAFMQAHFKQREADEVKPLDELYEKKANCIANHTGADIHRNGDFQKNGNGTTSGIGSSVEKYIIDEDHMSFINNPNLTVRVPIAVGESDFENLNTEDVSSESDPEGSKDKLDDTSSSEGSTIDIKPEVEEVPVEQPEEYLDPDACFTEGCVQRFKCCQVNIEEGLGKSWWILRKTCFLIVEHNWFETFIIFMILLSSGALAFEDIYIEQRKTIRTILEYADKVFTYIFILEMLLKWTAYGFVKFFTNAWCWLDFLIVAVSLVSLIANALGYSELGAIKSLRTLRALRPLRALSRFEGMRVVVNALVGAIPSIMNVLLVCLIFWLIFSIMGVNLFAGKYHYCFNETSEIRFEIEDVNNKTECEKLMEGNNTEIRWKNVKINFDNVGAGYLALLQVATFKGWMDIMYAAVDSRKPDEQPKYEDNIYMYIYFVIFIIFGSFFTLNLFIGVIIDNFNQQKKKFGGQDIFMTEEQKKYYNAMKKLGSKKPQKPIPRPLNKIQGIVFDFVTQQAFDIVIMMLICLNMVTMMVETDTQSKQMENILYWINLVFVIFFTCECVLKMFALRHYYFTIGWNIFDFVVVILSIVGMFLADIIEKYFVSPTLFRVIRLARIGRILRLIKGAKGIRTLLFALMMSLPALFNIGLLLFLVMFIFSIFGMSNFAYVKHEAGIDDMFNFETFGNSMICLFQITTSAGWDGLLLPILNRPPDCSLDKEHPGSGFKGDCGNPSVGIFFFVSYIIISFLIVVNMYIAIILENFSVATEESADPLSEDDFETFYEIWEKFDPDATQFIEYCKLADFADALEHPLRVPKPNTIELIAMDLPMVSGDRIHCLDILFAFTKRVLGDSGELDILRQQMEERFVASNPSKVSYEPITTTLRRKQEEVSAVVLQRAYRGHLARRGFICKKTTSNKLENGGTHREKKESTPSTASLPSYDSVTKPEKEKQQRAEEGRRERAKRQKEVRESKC
# TEST_NAME: Nav 1.6 inhibition, IonWorks Quattro electrophysiology
# Assay type: cell-based
# ASSAY_CONTEXT: 5 μM; normalized to vehicle control (0%) and maximal inhibition control (100%)
MEASURED_QUANTITY: inhibition at 5 µM (%)
The response must be a number in % with no trailing unit.

Some molecules with known inhibition at 5 µM results, for comparison:
MOLECULE: CNC(=O)C1CN(Cc2ccc(Oc3ccc(F)cc3F)nc2)CCO1 (centres unmarked)
inhibition at 5 µM / %: -3.6
//
MOLECULE: CNC(=O)[C@@H]1CN(Cc2ccc(Oc3ccccc3F)nc2)CCO1
inhibition at 5 µM / %: -6.3
//
MOLECULE: CNC(=O)C1CN(Cc2ccc(Oc3ccc(Cl)cc3)nc2)CCO1 (centres unmarked)
inhibition at 5 µM / %: 7.1

Provide one value: measured inhibition at 5 µM of CNC(=O)[C@@H]1CN(Cc2ccc(Oc3ccc(F)cc3)cn2)CCO1
6.8

Provide one value: measured inhibition at 5 µM of CNC(=O)C1CN(Cc2ccc(Oc3ccc(C)cc3C)nc2)CCO1 (centres unmarked)
-1.8
